The origin of these recorded values is patent US20100266614A1.

- experimental_system: T1, RSV F protein (C-terminal truncated F protein secreted from a recombinant baculovirus) (respiratory syncytial virus (RSV), UniProt P03420 26-524)
- T1 construct: also called F antigen; RSV F antigen
- T1 sequence (P03420 26-109, chain 1 of 2): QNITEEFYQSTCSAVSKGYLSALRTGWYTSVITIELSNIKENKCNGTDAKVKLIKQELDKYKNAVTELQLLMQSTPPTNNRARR
- T1 sequence (P03420 137-524, chain 2 of 2): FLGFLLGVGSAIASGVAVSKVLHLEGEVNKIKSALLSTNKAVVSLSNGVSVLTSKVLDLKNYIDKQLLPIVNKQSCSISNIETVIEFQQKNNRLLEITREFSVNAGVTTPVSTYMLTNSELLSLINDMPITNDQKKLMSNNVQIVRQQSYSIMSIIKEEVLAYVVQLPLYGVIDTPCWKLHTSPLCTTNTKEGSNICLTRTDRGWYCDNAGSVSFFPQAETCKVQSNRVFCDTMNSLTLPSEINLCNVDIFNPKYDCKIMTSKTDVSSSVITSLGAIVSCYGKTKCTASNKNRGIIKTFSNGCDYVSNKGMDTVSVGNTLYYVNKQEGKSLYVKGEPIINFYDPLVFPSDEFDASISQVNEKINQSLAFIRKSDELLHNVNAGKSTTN
- method_description: ELISA titration of antibody on 500 ng RSV F antigen; qualitative score from titration curves
endpoint: Ag Score (arbitrary score 0-4)
Write it as a number; the unit arbitrary score 0-4 goes unstated.

{"binder": "clone 4 (PFFY) (antibody, V domains shown, also called 4 (n = 3)) VH: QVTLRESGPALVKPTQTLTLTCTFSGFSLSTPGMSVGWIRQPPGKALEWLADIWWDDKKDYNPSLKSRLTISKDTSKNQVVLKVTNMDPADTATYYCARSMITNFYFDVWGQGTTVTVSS VL: DIQMTQSPSTLSASVGDRVTITCSASSSVGYMHWYQQKPGKAPKLLIYDTFKLASGVPSRFSGSGSGTEFTLTISSLQPDDFATYYCFQGSYYPFTFGGGTKVEIK", "Ag Score [arbitrary score 0-4]": 3.5}
{"binder": "clone 12 (PWFF) (antibody, V domains shown, also called 12 (n = 2)) VH: QVTLRESGPALVKPTQTLTLTCTFSGFSLSTPGMSVGWIRQPPGKALEWLADIWWDDKKDYNPSLKSRLTISKDTSKNQVVLKVTNMDPADTATYYCARSMITNWYFDVWGQGTTVTVSS VL: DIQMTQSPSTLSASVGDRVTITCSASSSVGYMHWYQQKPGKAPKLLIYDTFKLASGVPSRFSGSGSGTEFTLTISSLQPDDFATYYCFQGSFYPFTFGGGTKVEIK", "Ag Score [arbitrary score 0-4]": 2.5}
{"binder": "clone 7 (PFFG) (antibody, V domains shown, also called 7 (n = 4)) VH: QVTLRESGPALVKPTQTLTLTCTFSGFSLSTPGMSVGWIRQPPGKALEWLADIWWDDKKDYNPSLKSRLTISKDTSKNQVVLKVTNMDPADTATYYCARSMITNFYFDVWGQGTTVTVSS VL: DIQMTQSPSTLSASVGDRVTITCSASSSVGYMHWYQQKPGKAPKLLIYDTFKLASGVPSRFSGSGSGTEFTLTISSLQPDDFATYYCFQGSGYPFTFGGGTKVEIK", "Ag Score [arbitrary score 0-4]": 3}

Here is the next item to consider.
Query (binder): IX-493 (SWSG), basic or reference antibody (Fab, V domains shown, also called basic antibody) VH: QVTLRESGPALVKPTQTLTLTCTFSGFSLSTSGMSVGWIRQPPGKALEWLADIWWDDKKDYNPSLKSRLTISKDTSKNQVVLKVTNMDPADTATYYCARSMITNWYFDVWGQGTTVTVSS VL: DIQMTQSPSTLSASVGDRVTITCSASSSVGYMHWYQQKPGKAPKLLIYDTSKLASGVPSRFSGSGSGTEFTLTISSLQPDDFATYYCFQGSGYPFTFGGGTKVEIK ; field requested: Ag Score 0.1
